Cited source for all entries: ChEMBL document CHEMBL5303304

Test system: HEK-293T
Assay: Incucyte cell viability with HEK293T; note: unitless GR value; below 1 slowed growth and below 0 cell loss
Type: toxicity, cell-based
Conditions: human, 6 h, 10 µM, compound concentration 10 uM, replicate number 2
readout_label: Growth Rate
Please reply with the number alone, leaving off any unit.

Previously resolved entries follow.
molecule	Growth Rate
CN(C)[C@H]1CCc2nc(NC(=O)c3cccc(Cn4cc(-c5ccc(C#N)cc5)cn4)c3)sc2C1.O=C(O)C(F)(F)F	0.68
CCc1cnn2c(NCc3ccc[n+]([O-])c3)cc(N3CCCCC3CCO)nc12 (stereo not drawn)	-0.72

Short answer please: Growth Rate, HEK-293T, entry N#Cc1ccnc(Nc2cc(C3CCN(C4COC4)CC3)cc(N3CCC(F)(F)C3)n2)c1 -0.9

---

Test system: U2OS
Assay: Incucyte cell viability with U2OS; note: unitless GR value; below 1 slowed growth and below 0 cell loss
Format: toxicity, cell-based
Settings: human, 24 h, 10 µM, compound concentration 10 uM, replicate number 2
readout_label: Growth Rate
Please reply with the number alone, leaving off any unit.

Previously resolved entries follow.
compound	target_system	recorded_value
Cc1nc2ccccc2c(-c2ccc3c4c(ccnc24)CCO3)c1[C@H](OC(C)(C)C)C(=O)O	U2OS	0.75
COc1cc(-c2cc([C@H](O)C3CC3)n3ncnc(N)c23)ccc1CO	U2OS	0.91
C[S+]([O-])c1ccc(-c2nc(-c3cccc(I)c3)c(-c3ccncc3)[nH]2)cc1 (stereo unspecified)	U2OS	0.65
COCCNc1nc2ccc(C#CC3(O)CCCCC3)cc2n1-c1ccnc(N)n1	U2OS	0.78
CN(C)C/C=C/C(=O)Nc1cccc(C(=O)Nc2ccc(Nc3nccc(-c4cccnc4)n3)cc2)c1	U2OS	0.13

Continue with the compound presented below.
So what's the measured Growth Rate for this one? Cc1onc(-c2ccc(F)cc2)c1COc1ccc(C(=O)N2CCS(=O)(=O)CC2)cn1 0.82

---

Tested on: U2OS
Assay: Incucyte cell viability with U2OS; note: unitless GR value; below 1 slowed growth and below 0 cell loss
Type: toxicity, cell-based
Conditions: human, 0 h, 10 µM, compound concentration 10 uM, replicate number 2
readout_label: Growth Rate
Please reply with the number alone, leaving off any unit.

Previously resolved entries follow.
compound	target_system	recorded_value
COCc1nc2cnc3cc(-c4c(C)noc4C)c(OC[C@H]4CCNC4)cc3c2n1[C@H](C)c1ccccc1	U2OS	-1
O=S(=O)(Nc1ccc(C(O)(C(F)(F)F)C(F)(F)F)cc1)c1cccs1	U2OS	0.65
Cc1cc2nc(N3CCC(C(=O)NC4CCCC4)CC3)n(C(C)C)c2cc1C	U2OS	-0.6
O=C(NC[C@@H]1[C@H]2CN(C(=O)OCc3cc(C(F)(F)F)cc(C(F)(F)F)c3)C[C@@H]12)c1ccc2[nH]nnc2c1	U2OS	-0.98

So what's the measured Growth Rate for this one? COc1ccc(CC[C@@H](OC(=O)[C@@H]2CCCCN2C(=O)[C@H](c2cc(OC)c(OC)c(OC)c2)C2CCCCC2)c2cccc(OCCN3CCOCC3)c2)cc1OC -0.99

So what's the measured Growth Rate for this one? COCc1c(-c2cc3cc(C)cc(OC)c3s2)c2c(N)ncnn2c1CN[C@@H]1CCNC1=O 0.73

So what's the measured Growth Rate for this one? C[C@@H](CN1CCC(Cc2ccccc2)CC1)[C@@H](O)c1ccc(O)cc1 -0.81

---

Growth Rate values for the molecules below.
System: HEK-293T
Assay: Incucyte cell viability with HEK293T; note: unitless GR value; below 1 slowed growth and below 0 cell loss
Type: toxicity, cell-based
Details: human, 18 h, 10 µM, compound concentration 10 uM, replicate number 2

Previously resolved entries follow.
molecule	target_system	recorded_value
CCc1ccc(-c2ncn(CC3(F)CCN(C)CC3)c2-c2ccnc3[nH]ccc23)nc1	HEK-293T	0.72
NC(=O)c1cc2c(-c3ccc(C(=O)NCc4ccnc(Cl)c4)s3)cccc2s1	HEK-293T	-0.17
CCc1ccccc1C(=O)Nc1n[nH]c2c(C)c(F)c(C3C(C#N)=C(C)N(C)C(C)=C3C#N)cc12	HEK-293T	0.66
Cc1cc(C(C#N)c2ccc(Cl)cc2)c(Cl)cc1NC(=O)c1cc(I)cc(I)c1O (centres undefined)	HEK-293T	0.87
Cl.Cl.N#Cc1ccc(O[C@@H]2c3ccccc3C[C@H]2N2CCC[C@@H](N)C2)c(Cl)c1	HEK-293T	-0.13

So what's the measured Growth Rate for this one? CCn1c(-c2ccncc2)cc2c1CCNC2=O -0.47

So what's the measured Growth Rate for this one? COc1ccccc1[C@@H]1CNCCC12CCN(C(=O)[C@](OC)(c1ccccc1)C(F)(F)F)CC2 0.64

So what's the measured Growth Rate for this one? C=CC(=O)Nc1cccc(C)c1Nc1ncc2cc(-c3c(Cl)c(OC)cc(OC)c3Cl)ccc2n1 -0.41

So what's the measured Growth Rate for this one? O=C(O)C[C@H]1CCn2c1c(Sc1ccc(Cl)cc1)c1ccc(F)cc12 0.93

---

Test system: HEK-293T
Test: Incucyte cell viability with HEK293T; note: unitless GR value; below 1 slowed growth and below 0 cell loss
Format: toxicity, cell-based
Settings: human, 12 h, 10 µM, compound concentration 10 uM, replicate number 2
Classify as follows. Reported Growth Rate greater than or equal to 0.7: Satisfied. Reported Growth Rate below: Not satisfied.

# example entries with known answers
chemical_smiles	target_system	class
CCN1C(=O)/C(=C(\NC2CCN(C)CC2)c2ccc3c(c2)OCO3)c2cc(C(C)=O)ccc21	HEK-293T	Satisfied
Cc1c(NC(=O)c2cccn(-c3ccc(F)cc3)c2=O)ccc(Oc2ccnc(NC(=O)C3CC3)c2)c1C	HEK-293T	Satisfied
CCc1ccccc1C(=O)Nc1n[nH]c2c(C)c(F)c(C3C(C#N)=C(C)N(C)C(C)=C3C#N)cc12	HEK-293T	Not satisfied
C[C@@H](COCCC(=O)N1CCN(c2ncc(C(F)(F)F)cn2)CC1)Nc1cn[nH]c(=O)c1C(F)(F)F	HEK-293T	Satisfied
CN(C)[C@H]1CCc2nc(NC(=O)c3cccc(Cn4cc(-c5ccc(C#N)cc5)cn4)c3)sc2C1.O=C(O)C(F)(F)F	HEK-293T	Satisfied

Is Growth Rate at least 0.7? Consider C#Cc1cnc2[nH]cc(-c3cccc4c3CCN4C(=O)[C@@H]3CCCN3C#N)c2c1 Not satisfied

Is Growth Rate at least 0.7? Consider O=C(NCCN1CCOCC1)c1ccc2nn(CCOc3ccc(Cl)cc3)cc2c1 Not satisfied

Is Growth Rate at least 0.7? Consider Cn1cncc1-c1cn(-c2cccc(C(=O)Nc3cccc(C(F)(F)F)c3)c2)nn1 Not satisfied

---

System: HEK-293T
Test: Incucyte cell viability with HEK293T; note: unitless GR value; below 1 slowed growth and below 0 cell loss
Assay type: toxicity, cell-based
Conditions: human, 18 h, 10 µM, compound concentration 10 uM, replicate number 1
Growth Rate values for the compounds below.

Previously resolved entries follow.
compound	Growth Rate
Cl.O=C1c2cccc3c2[C@H](CCC3)CN1[C@@H]1CN2CCC1CC2 [PALONOSETRON HYDROCHLORIDE]	0.55
FC(F)(F)Oc1ccc(-c2ccc3nnc(C(F)(F)F)n3c2)cc1	1
Cc1ccc2c(NS(=O)(=O)c3ccccc3Cl)cccc2c1Oc1ncccc1-c1ccnc(N[C@H]2CCCNC2)n1.Cl	0.5
COc1ncc2cc(C(=O)Nc3cc(C(=O)NCc4cccc(Cl)c4)ccc3Cl)c(=O)[nH]c2n1	0.51
Cl.Cl.Nc1nccc(-c2c(-c3ccc(F)cc3)ncn2C2CCCCC2)n1	0.99

So what's the measured Growth Rate for this one? CCOC(=O)N1CCC(c2cc(O)n3nc(C)c(-c4ccc(F)cc4)c3n2)CC1 0.78

---

Growth Rate values for the compounds below.
Tested on: HEK-293T
Test: Incucyte cell viability with HEK293T; note: unitless GR value; below 1 slowed growth and below 0 cell loss
Format: toxicity, cell-based
Details: human, 24 h, 10 µM, compound concentration 10 uM, replicate number 1

Previously resolved entries follow.
compound	readout_label	recorded_value
COc1ncc(-c2cc(-c3ncc(CN4C[C@@H](C)O[C@@H](C)C4)o3)c3cn[nH]c3c2)cc1NS(C)(=O)=O	Growth Rate	0.05
O=C1NC(=Nc2c(Cl)cccc2Cl)S/C1=C\c1ccc2nccnc2c1	Growth Rate	0.52
Cn1ncc(-c2nc(N[C@H]3CC[C@H](N)CC3)ncc2Cl)c1CC1CC1	Growth Rate	0.57
OCC1OC(n2cnc3cc(Cl)c(Cl)cc32)C(O)C1O (stereo unspecified)	Growth Rate	0.55
CCOc1ccc(S(=O)(=O)Nc2ccc(Cl)cc2C#Cc2cnc(C(=O)[O-])cc2OC)c2ncccc12.[K+]	Growth Rate	0.98

So what's the measured Growth Rate for this one? Cn1cc(-c2cnc3ccc4ccc(CS(=O)(=O)NCc5ccccn5)cc4c(=O)c3c2)cn1 0.71

So what's the measured Growth Rate for this one? Cc1ccc(NC(=O)c2ccc3cnccc3c2)cc1C(=O)Nc1cnc(Nc2cccc(NC3CCN(C(=O)/C=C/CN(C)C)CC3)c2)nc1 -0.54

So what's the measured Growth Rate for this one? O=C1Nc2nc(-c3c(O)cccc3OCC3CC3)cc([C@@H]3CCCNC3)c2CO1 0.93

So what's the measured Growth Rate for this one? O=C(Nc1ccccc1C(=O)O)c1cc(S(=O)(=O)c2ccccc2)ccc1Cl 0.24

So what's the measured Growth Rate for this one? CC[C@H](CO)Nc1nc(Nc2cccc(-c3ccccn3)c2)c2ncn(C(C)C)c2n1.Cl.O 0.16

So what's the measured Growth Rate for this one? CC(=O)Nc1nc(CN2CCC[C@H](Cc3cc(C)nc(C)c3)C2)cs1 0.82
